Values from patent US9975933B2

Assayed target: NRP2-b1b2 (b1b2 domain of neuropilin-2) (Homo sapiens)
Construct: b1b2 domains (275-595) of neuropilin-2
Sequence (O60462 275-595): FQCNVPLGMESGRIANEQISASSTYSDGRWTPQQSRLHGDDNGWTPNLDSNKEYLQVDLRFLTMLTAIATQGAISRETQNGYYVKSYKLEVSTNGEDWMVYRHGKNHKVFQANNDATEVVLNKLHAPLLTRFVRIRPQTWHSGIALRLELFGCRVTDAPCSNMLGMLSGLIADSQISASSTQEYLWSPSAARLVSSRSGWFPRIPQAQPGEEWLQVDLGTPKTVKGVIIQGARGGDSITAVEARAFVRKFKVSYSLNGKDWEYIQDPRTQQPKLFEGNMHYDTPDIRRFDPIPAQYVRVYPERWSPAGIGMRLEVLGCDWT
Assay method text: SPR (Biacore2000) binding to b1b2 domain of neuropilin-2
Measure: Association rate ka

Worked examples, 4 substances total:
| Substance | Association rate ka |
| --- | --- |
| Fc-4F22: Human IgG1 Fc with TPP 4F22 (SEQ ID NO: 8) fused to its C-terminus (GAGAREAPGAPRSPEPQDQKKPRNRR) | 1.21 ± 0.15 × 10^2 M^−1s^−1 |
| Fc-15F22p: Human IgG1 Fc with TPP 15F22p (SEQ ID NO: 10) fused to its C-terminus (GGGGSGGGGSGGGGSREAPGAPRSPEPQDQKKPRPRR) | 1.34 ± 0.24 × 10^4 M^−1s^−1 |
| Fc-4A22: Human IgG1 Fc with TPP 4A22 (SEQ ID NO: 5) fused to its C-terminus (GAGAHTPGNSNKWKHLQENKKGRNRR) | 6.09 ± 0.63 × 10^3 M^−1s^−1 |
| Fc-15A22: Human IgG1 Fc with TPP 15A22 (SEQ ID NO: 6) fused to its C-terminus (GGGGSGGGGSGGGGSHTPGNSNKWKHLQENKKGRNRR) | 3.94 ± 0.42 × 10^3 M^−1s^−1 |

Attention now turns to another entry.
Incoming: Requested read-out: Association rate ka. Entry: Fc-15F22: Human IgG1 Fc with (GGGGS)3-F22 (SEQ ID NO: 9) fused to its C-terminus (GGGGSGGGGSGGGGSREAPGAPRSPEPQDQKKPRNRR)
Outgoing: 1.05 ± 0.03 × 10^3 M^−1s^−1

---

Overview of reported pKd across a group of substances:
Assayed target: NRP1-b1b2 (b1b2 domain of neuropilin-1) (Homo sapiens, UniProt O14786)
Construct: b1b2 domains (273-586) of neuropilin-1
Sequence (O14786 273-586): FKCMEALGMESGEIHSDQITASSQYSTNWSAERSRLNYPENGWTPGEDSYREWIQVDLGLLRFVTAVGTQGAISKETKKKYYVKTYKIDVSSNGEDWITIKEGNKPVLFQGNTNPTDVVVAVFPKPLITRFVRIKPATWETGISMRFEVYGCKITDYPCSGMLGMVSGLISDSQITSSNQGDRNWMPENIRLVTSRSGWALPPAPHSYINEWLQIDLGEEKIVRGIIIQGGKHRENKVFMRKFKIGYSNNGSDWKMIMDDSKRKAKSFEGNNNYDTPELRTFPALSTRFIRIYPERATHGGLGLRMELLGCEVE
Assay method text: SPR (Biacore2000) binding to b1b2 domain of neuropilin-1
Condition summary: NRP1-b1b2, SPR; read-out: Binding affinity KD
// pKd is dimensionless: -log10 of concentration (M)

| Substance | Measure | Numeric readout |
| --- | --- | --- |
| Fc-4A22: Human IgG1 Fc with TPP 4A22 (SEQ ID NO: 5) fused to its C-terminus (GAGAHTPGNSNKWKHLQENKKGRNRR) | pKd | 4.74 |
| Fc-15A22: Human IgG1 Fc with TPP 15A22 (SEQ ID NO: 6) fused to its C-terminus (GGGGSGGGGSGGGGSHTPGNSNKWKHLQENKKGRNRR) | pKd | 5.22 |
| Fc-15F22p: Human IgG1 Fc with TPP 15F22p (SEQ ID NO: 10) fused to its C-terminus (GGGGSGGGGSGGGGSREAPGAPRSPEPQDQKKPRPRR) | pKd | 7.10 |
| Fc-4F22: Human IgG1 Fc with TPP 4F22 (SEQ ID NO: 8) fused to its C-terminus (GAGAREAPGAPRSPEPQDQKKPRNRR) | pKd | 4.99 |

Attention now turns to another entry.
Incoming: Requested read-out: pKd. Entry: Fc-15F22: Human IgG1 Fc with (GGGGS)3-F22 (SEQ ID NO: 9) fused to its C-terminus (GGGGSGGGGSGGGGSREAPGAPRSPEPQDQKKPRNRR)
Outgoing: 4.40
